Cited source: ChEMBL document CHEMBL1125900

Can you tell me Assembly for the items I'm about to list?
Species on record: Homo sapiens
Assay: Effect on microtubule protein assembly was determined in vitro
Assay type: functional
Answers are plain numbers, in %.

Sample answers from the record:
COMPOUND	RESULT_TYPE	NUMERIC_READOUT
CC(=O)O[C@H]1C(=O)[C@@]2(C)[C@H]([C@H](OC(=O)c3ccccc3)[C@]3(O)C[C@H](OC(=O)[C@H](O)CNC(=O)c4ccccc4)C(C)=C1C3(C)C)[C@]1(OC(C)=O)CO[C@@H]1C[C@@H]2O	Assembly	60
CC(=O)O[C@H]1C(=O)[C@@]2(C)[C@H]([C@H](OC(=O)c3ccccc3)[C@]3(O)C[C@H](OC(=O)[C@H](O)Cc4ccccc4)C(C)=C1C3(C)C)[C@]1(OC(C)=O)CO[C@@H]1C[C@@H]2O	Assembly	68
Nc1nc2c(ncn2[C@@H]2O[C@H](COP(=O)(O)OP(=O)(O)OP(=O)(O)O)[C@@H](O)[C@H]2O)c(=O)[nH]1 [GUANOSINE TRIPHOSPHATE]	Assembly	70

Here is the next item to consider.
Give the reported Assembly for this compound. "CC(=O)O[C@H]1C(=O)[C@@]2(C)[C@H]([C@H](OC(=O)c3ccccc3)[C@]3(O)C[C@H](OC(=O)[C@@H](O)Cc4ccccc4)C(C)=C1C3(C)C)[C@]1(OC(C)=O)CO[C@@H]1C[C@@H]2O"
69

###

Species on record: Homo sapiens
Experiment: Effect on microtubule protein assembly was determined in vitro
Assay type: functional
RESULT_TYPE: Assembly (%)
Numbers only, in %.

MOLECULE	RESULT_TYPE	NUMERIC_READOUT
CC(=O)O[C@H]1C(=O)[C@@]2(C)[C@H]([C@H](OC(=O)c3ccccc3)[C@]3(O)C[C@H](OC(=O)[C@@H](C)O)C(C)=C1C3(C)C)[C@]1(OC(C)=O)CO[C@@H]1C[C@@H]2O	Assembly	31
CC(=O)O[C@H]1C(=O)[C@@]2(C)[C@H]([C@H](OC(=O)c3ccccc3)[C@]3(O)C[C@H](OC(=O)[C@H](C)O)C(C)=C1C3(C)C)[C@]1(OC(C)=O)CO[C@@H]1C[C@@H]2O	Assembly	38

Next, consider the following molecule.
Report Assembly, nothing else, for this molecule: CC(=O)O[C@H]1C(=O)[C@@]2(C)[C@H]([C@H](OC(=O)c3ccccc3)[C@]3(O)C[C@H](OC(=O)[C@H](O)[C@@H](NC(=O)c4ccccc4)c4ccccc4)C(C)=C1C3(C)C)[C@]1(OC(C)=O)CO[C@@H]1C[C@@H]2O [PACLITAXEL]
100

###

Assay: Solubility in H2O was measured
Type: physicochemical
Conditions: water
# solubility >= 600 µM gives met, anything below gives not met

MOL_SMILES	CATEGORY
CC(=O)O[C@H]1C(=O)[C@@]2(C)[C@H]([C@H](OC(=O)c3ccccc3)[C@]3(O)C[C@H](OC(=O)[C@@H](C)O)C(C)=C1C3(C)C)[C@]1(OC(C)=O)CO[C@@H]1C[C@@H]2O	met
CC(=O)O[C@H]1C(=O)[C@@]2(C)[C@H]([C@H](OC(=O)c3ccccc3)[C@]3(O)C[C@H](OC(=O)[C@@H](O)Cc4ccccc4)C(C)=C1C3(C)C)[C@]1(OC(C)=O)CO[C@@H]1C[C@@H]2O	not met
CC(=O)O[C@H]1C(=O)[C@@]2(C)[C@H]([C@H](OC(=O)c3ccccc3)[C@]3(O)C[C@H](OC(=O)[C@@H](O)CNC(=O)c4ccccc4)C(C)=C1C3(C)C)[C@]1(OC(C)=O)CO[C@@H]1C[C@@H]2O	not met
CC(=O)O[C@H]1C(=O)[C@@]2(C)[C@H]([C@H](OC(=O)c3ccccc3)[C@]3(O)C[C@H](OC(=O)[C@H](C)O)C(C)=C1C3(C)C)[C@]1(OC(C)=O)CO[C@@H]1C[C@@H]2O	met

Proceed to the following item.
Given "CC(=O)O[C@H]1C(=O)[C@@]2(C)[C@H]([C@H](OC(=O)c3ccccc3)[C@]3(O)C[C@H](OC(=O)[C@H](O)Cc4ccccc4)C(C)=C1C3(C)C)[C@]1(OC(C)=O)CO[C@@H]1C[C@@H]2O" , state whether its solubility is at least 600 µM.
not met
